These data points were gathered from PubChem BioAssay (NCI).

- System: MALME-3M melanoma
- Assay Info: NCI-60 one-dose screen, 48 h (100 = growth as untreated, 0 = no growth, -100 = all killed)
- Conditions: 10 µM unless noted
About 83,000 compounds went through this panel and 20% of them were active in at least one assay; those are over-represented in the sample as a whole.
Readout: growth (%)
Could you give me the number in %? Just the number is fine.

CC(=O)O[C@H]1C(=O)[C@@]2(C)[C@H]([C@H](OC(=O)c3ccccc3)[C@]3(O)C[C@H](OC(=O)[C@H](OC(=O)OCC4COC(C)(C)O4)[C@@H](NC(=O)c4ccccc4)c4ccccc4)C(C)=C1C3(C)C)[C@]1(OC(C)=O)CO[C@@H]1C[C@@H]2O (some centres undefined)	45
COc1ccc2c(c1)c(-c1nc(-c3c[nH]c4ncccc34)cs1)cn2CCCCN1CCCCC1	-76.1
COC1=CC(=O)O[C@@H](/C=C/c2ccc3c(c2)OCO3)C1	119
COC(=O)[C@@H](C)C[C@H](Cc1ccccc1)NC(=O)c1nc([C@@H](C[C@H](C(C)C)N(C)C(=O)[C@@H](NC(=O)[C@H]2C[C@H](O)CCN2C)C(C)C)OC(C)=O)sc1C(C)C	28.4
CC(=O)O[C@H](C[C@H](C(C)C)N(C)C(=O)[C@@H](NC(=O)[C@H]1CCCCN1C)C(C)C)c1nc(C(=O)N[C@@H](Cc2ccccc2)C[C@H](C)C(=O)O)c(C(C)C)s1	64.9
O=[N+]([O-])c1cc([N+](=O)[O-])c(Nn2c3ccccc3c3ccccc32)c([N+](=O)[O-])c1	-16.2
COc1cc(NC(C)CCCNC2CN3CCC2CC3)c2ncccc2c1 (centres undefined)	81.3
CCCCCN(CCCCC)CC(O)c1cc(Cl)ccc1OC (centres undefined)	66.9
O=C1CC2(CC3(Cl)C(Cl)=C(Cl)C2(Cl)C3(Cl)Cl)C(=O)O1 (centres undefined)	101
COc1cc([C@@H]2c3cc4c(cc3[C@H](OC(C)=O)[C@H]3COC(=O)[C@H]23)OCO4)cc(OC)c1OC	68.9

Q: Look up growth with MALME-3M melanoma for this molecule: CC(=O)OC1CCC2(C)C(CCC3C2CC(=O)C2(C)C3CC(Sc3ccc(N(CCCl)CCCl)cc3)C2C(C)=O)C1 (centres undefined)
Result: 139

Q: Look up growth with MALME-3M melanoma for this molecule: Cc1c(O)c(CN(CCCl)CCCl)cc(CN(CCCl)CCCl)c1O
Result: 93.1

Q: Look up growth with MALME-3M melanoma for this molecule: COC[C@@H]1C[C@@]2(C)[C@@H](CC[C@@H]3[C@@H]2CC[C@@]2(C)[C@H]3CC[C@]2(C)O)CC1=O
Result: 96.4

Q: Look up growth with MALME-3M melanoma for this molecule: OCc1ccc2c(c1)OCO2
Result: 97.5
